Items are presented alongside their recorded %-inhibition of TIE2.
molecular target: panel of more than 300 wild-type and mutant kinases (313 kinase panel) (Homo sapiens, UniProt Q02763); assay: Kinase profiling in a biochemical assay panel (mobility shift assays and ELISA), %-inhibition at 1 μM; selectivity entropy; conditions: kinase TIE2; 1 μM
Sequence (Q02763 23-1124, change not shown): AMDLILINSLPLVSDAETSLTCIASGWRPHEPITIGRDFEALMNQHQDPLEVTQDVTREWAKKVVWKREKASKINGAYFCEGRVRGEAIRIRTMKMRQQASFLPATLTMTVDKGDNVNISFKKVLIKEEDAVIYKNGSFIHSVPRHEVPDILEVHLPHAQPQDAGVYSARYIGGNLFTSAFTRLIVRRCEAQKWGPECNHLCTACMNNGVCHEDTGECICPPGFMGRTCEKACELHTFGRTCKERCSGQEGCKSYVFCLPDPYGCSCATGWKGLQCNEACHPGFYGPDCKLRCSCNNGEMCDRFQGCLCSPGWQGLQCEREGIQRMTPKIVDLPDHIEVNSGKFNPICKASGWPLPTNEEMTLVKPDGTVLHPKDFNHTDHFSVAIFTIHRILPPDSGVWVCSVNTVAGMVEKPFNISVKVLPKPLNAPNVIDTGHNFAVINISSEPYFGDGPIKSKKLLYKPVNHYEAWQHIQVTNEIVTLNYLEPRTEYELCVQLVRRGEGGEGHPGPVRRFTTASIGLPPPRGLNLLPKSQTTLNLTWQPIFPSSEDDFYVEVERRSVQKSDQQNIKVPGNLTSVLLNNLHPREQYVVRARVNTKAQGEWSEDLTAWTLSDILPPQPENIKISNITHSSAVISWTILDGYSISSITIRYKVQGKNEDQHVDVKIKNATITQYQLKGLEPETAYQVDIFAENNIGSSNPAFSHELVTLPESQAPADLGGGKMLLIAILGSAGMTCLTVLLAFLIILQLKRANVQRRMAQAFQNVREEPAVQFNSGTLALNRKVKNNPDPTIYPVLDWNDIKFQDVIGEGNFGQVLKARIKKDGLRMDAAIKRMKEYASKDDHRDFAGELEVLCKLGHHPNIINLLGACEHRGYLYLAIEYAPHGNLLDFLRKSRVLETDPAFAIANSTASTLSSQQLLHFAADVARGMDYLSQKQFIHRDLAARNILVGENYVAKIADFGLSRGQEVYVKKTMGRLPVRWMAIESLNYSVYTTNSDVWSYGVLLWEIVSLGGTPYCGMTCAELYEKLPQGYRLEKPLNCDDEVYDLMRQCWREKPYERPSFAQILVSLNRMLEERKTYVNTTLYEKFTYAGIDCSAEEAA

Molecule: CCCS(=O)(=O)Nc1ccc(F)c(C(=O)c2c[nH]c3ncc(-c4ccc(Cl)cc4)cc23)c1F [vemurafenib]
Result Units: %
%-inhibition of TIE2: -2.42
--
Molecule: N#CC[C@H](C1CCCC1)n1cc(-c2ncnc3[nH]ccc23)cn1 [ruxolitinib]
Result Units: %
%-inhibition of TIE2: 3
--
Molecule: CS(=O)(=O)CCNCc1ccc(-c2ccc3ncnc(Nc4ccc(OCc5cccc(F)c5)c(Cl)c4)c3c2)o1 [lapatinib]
Result Units: %
%-inhibition of TIE2: 2.14
--
Molecule: COc1cc(Nc2c(C#N)cnc3cc(OCCCN4CCN(C)CC4)c(OC)cc23)c(Cl)cc1Cl [bosutinib]
Result Units: %
%-inhibition of TIE2: 22
--
Molecule: O=S(=O)(c1cccc2cnccc12)N1CCCNCC1 [fasudil]
Result Units: %
%-inhibition of TIE2: -10
--
Molecule: COc1cc2nccc(Oc3ccc(NC(=O)C4(C(=O)Nc5ccc(F)cc5)CC4)cc3)c2cc1OC [cabozantinib]
Result Units: %
%-inhibition of TIE2: 90
--
Molecule: CO[C@H]1C[C@@H]2CC[C@@H](C)[C@@](O)(O2)C(=O)C(=O)N2CCCC[C@H]2C(=O)O[C@H]([C@H](C)C[C@@H]2CC[C@@H](OCCO)[C@H](OC)C2)CC(=O)[C@H](C)/C=C(\C)[C@@H](O)[C@@H](OC)C(=O)[C@H](C)C[C@H](C)/C=C/C=C/C=C/1C [everolimus]
Result Units: %
%-inhibition of TIE2: -3.66
--
Molecule: CC(=O)Nc1cccc(-n2c(=O)n(C3CC3)c(=O)c3c(Nc4ccc(I)cc4F)n(C)c(=O)c(C)c32)c1 [trametinib]
Result Units: %
%-inhibition of TIE2: -7

The reported numbers originate from paper PMC3961306.
